Please provide measured Freeze–thaw MCM ± SD for the entries that follow.
- protocol.text: Stability of the analytes in human plasma at QC levels
- Assay type: in vitro ADME
- measurement.parameters: low QC; four cycles, −40 °C; human plasma; n = 5

Example entries begin here.
C[C@H]1C[C@H]2[C@@H]3CCC4=CC(=O)C=C[C@]4(C)[C@@]3(F)[C@@H](O)C[C@]2(C)[C@@]1(O)C(=O)CO [BOH, betamethasone] :: 0.577 ± 0.038 × 10^−9 mol·dm^−3
CCC(=O)O[C@]1(C(=O)CO)[C@@H](C)C[C@H]2[C@@H]3CCC4=CC(=O)C=C[C@]4(C)[C@@]3(F)[C@@H](O)C[C@@]21C [B17P, betamethasone 17-monopropionate] :: 0.221 ± 0.335 × 10^−9 mol·dm^−3
C[C@H]1C[C@H]2[C@@H]3CCC4=CC(=O)C=C[C@]4(C)[C@@]3(F)[C@@H](O)C[C@]2(C)[C@@]1(O)C(=O)COP(=O)([O-])[O-].[Na+].[Na+] [BSP, betamethasone sodium phosphate] :: 4.905 ± 0.357 × 10^−9 mol·dm^−3

# map each compound to its Freeze–thaw MCM ± SD
1. CCC(=O)OCC(=O)[C@@]1(O)[C@@H](C)C[C@H]2[C@@H]3CCC4=CC(=O)C=C[C@]4(C)[C@@]3(F)[C@@H](O)C[C@@]21C [B21P, betamethasone 21-monopropionate]
2. CCC(=O)OCC(=O)[C@@]1(OC(=O)CC)[C@@H](C)C[C@H]2[C@@H]3CCC4=CC(=O)C=C[C@]4(C)[C@@]3(F)[C@@H](O)C[C@@]21C [BDP, betamethasone dipropionate]

Reply:
1. 0.463 ± 0.024 × 10^−9 mol·dm^−3
2. 0.276 ± 0.042 × 10^−9 mol·dm^−3

Cited source: paper PMC5042352
